tested on: tet operator sequence; experiment: β-galactosidase activity of a tetracycline-regulated promoter in transformed E. coli with revTetR, in the presence and absence of anhydrotetracycline (atc); assay type: cell-based, Escherichia coli; settings: RevTetR isolate cultured in the presence of anhydrotetracycline (ATC)
Provide the reported β-Galactosidase Activity, Cultured With ATC of each item.

Requested read-out: β-Galactosidase Activity, Cultured With ATC. Entry: TetRrev6-27: revTetR(BD) A71T G96E (protein, Modified tetracycline repressor, revTetR(BD) A71T G96E) MSRLDKSKVINSALELLNEVGIEGLTTRKLAQKLGVEQPTLYWHVKNKRALLDALAVEILARHHDYSLPATGESWQSFLRNNAMSFRRALLRYRDEAKVHLGTRPDEKQYDTVETQLRFMTENGFSLRDGLYAISAVSHFTLGAVLEQQEHTAALTDRPAAPDENLPPLLREALQIMDSDDGEQAFLHGLESLIRGFEVQLTALLQIV
44.43

Requested read-out: β-Galactosidase Activity, Cultured With ATC. Entry: TetRrev6-26: revTetR(BD) Y93F G96W A97E H100N (protein, Modified tetracycline repressor, revTetR(BD) Y93F G96W A97E H100N) MSRLDKSKVINSALELLNEVGIEGLTTRKLAQKLGVEQPTLYWHVKNKRALLDALAVEILARHHDYSLPAAGESWQSFLRNNAMSFRRALLRFRDWEKVNLGTRPDEKQYDTVETQLRFMTENGFSLRDGLYAISAVSHFTLGAVLEQQEHTAALTDRPAAPDENLPPLLREALQIMDSDDGEQAFLHGLESLIRGFEVQLTALLQIV
6.9688

Requested read-out: β-Galactosidase Activity, Cultured With ATC. Entry: TetRrev29/35: revTetR(BD) L17S E23D (protein, Modified tetracycline repressor, revTetR(BD) L17S E23D) MSRLDKSKVINSAEELSNEGGIDGLTTRKLAQKLGVEQPTLYWHVKNKRALLDALAVEILARHHDYSLPAAGESWQSFLRNNAMSFRRALLRYRDGAKVHLGTRPDEKQYDTVETQLRFMTENGFSLRDGLYAISAVSHFTLGAVLEQQEHTAALTDRPAAPDENLPPLLREALQIMDSDDGEQAFLHGLESLIRGFEVQLTALLQIV
2.1051

Requested read-out: β-Galactosidase Activity, Cultured With ATC. Entry: TetRrevAD2/2: revTetR(BD) L14I G21R A56V (protein, Modified tetracycline repressor, revTetR(BD) L14I G21R A56V) MSRLDKSKVINSAIELLNEVRIEGLTTRKLAQKLGVEQPTLYWHVKNKRALLDALVVEILARHHDYSLPAAGESWQSFLRNNAMSFRRALLRYRDGAKVHLGTRPDEKQYDTVETQLRFMTENGFSLRDGLYAISAVSHFTLGAVLEQQEHTAALTDRPAAPDENLPPLLREALQIMDSDDGEQAFLHGLESLIRGFEVQLTALLQIV
5.2312
